Reference source for all entries: ChEMBL document CHEMBL5291721

- assay system: 5-hydroxytryptamine receptor 1A (Homo sapiens); further: assay procedure not described here
- Sequence (P08908 whole entry): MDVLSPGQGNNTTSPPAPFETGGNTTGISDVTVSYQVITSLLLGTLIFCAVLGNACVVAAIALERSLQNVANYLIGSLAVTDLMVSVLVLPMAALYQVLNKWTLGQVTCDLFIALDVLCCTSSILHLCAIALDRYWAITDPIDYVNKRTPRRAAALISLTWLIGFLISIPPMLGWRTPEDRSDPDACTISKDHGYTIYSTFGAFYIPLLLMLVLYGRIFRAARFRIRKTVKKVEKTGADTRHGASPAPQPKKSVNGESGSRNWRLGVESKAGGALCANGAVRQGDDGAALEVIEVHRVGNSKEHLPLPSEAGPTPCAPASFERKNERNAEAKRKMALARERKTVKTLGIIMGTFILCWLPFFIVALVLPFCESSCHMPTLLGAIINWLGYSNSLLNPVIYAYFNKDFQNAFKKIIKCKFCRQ
- Type: functional, cell-based
Where a SMILES comes first, the peptide text is derived from it. [ ]: non-standard residue; d: D form. pGlu = O=C1CC[C@@H](C(=O)O)N1; Thz = O=C(O)[C@@H]1CSCN1
Catalogue of AC50 values

CC(c1cc2ccccc2s1)N(O)C(N)=O (stereo unspecified) [ZILEUTON] : > 10 µM

Request: I would be grateful if you could share the reported AC50 for CCC(=O)O[C@]1(C(=O)CCl)[C@@H](C)C[C@H]2[C@@H]3CCC4=CC(=O)C=C[C@]4(C)[C@@]3(F)[C@@H](O)C[C@@]21C [CLOBETASOL PROPIONATE] .
Result: > 30 µM

Request: I would be grateful if you could share the reported AC50 for CCc1cc2c(s1)-n1c(C)nnc1CN=C2c1ccccc1Cl [ETIZOLAM] .
Result: > 30 µM

Request: I would be grateful if you could share the reported AC50 for CN[C@@H](C)[C@@H](O)c1ccccc1 [PSEUDOEPHEDRINE] .
Result: > 10 µM

Request: I would be grateful if you could share the reported AC50 for OC[C@H]1O[C@@H](Oc2cc(O)cc(/C=C/c3ccc(O)cc3)c2)[C@H](O)[C@@H](O)[C@@H]1O [PICEID] .
Result: > 30 µM

Request: I would be grateful if you could share the reported AC50 for CCOC(=O)C1=C(C)NC(C)=C(C(=O)OCC)C1c1ccccc1/C=C/C(=O)OC(C)(C)C [LACIDIPINE] .
Result: > 30 µM

Request: I would be grateful if you could share the reported AC50 for CC(C)N(CCCCOCC(=O)O)c1cnc(-c2ccccc2)c(-c2ccccc2)n1 .
Result: > 30 µM

Request: I would be grateful if you could share the reported AC50 for Cc1cccc(C)c1NC(=O)CC12CCCN1CCC2 [PILSICAINIDE] .
Result: > 30 µM

Request: I would be grateful if you could share the reported AC50 for NC(=O)NC(=O)Cc1ccccc1 [PHENACEMIDE] .
Result: > 10 µM

Request: I would be grateful if you could share the reported AC50 for CN1CCN=C(c2ccccc2)c2cc(Cl)ccc21 [MEDAZEPAM] .
Result: > 30 µM

Request: I would be grateful if you could share the reported AC50 for CC(CN1c2ccccc2Sc2ccccc21)N(C)C (stereo unspecified) [PROMETHAZINE] .
Result: > 10 µM

Request: I would be grateful if you could share the reported AC50 for O=C1c2ccccc2C(=O)C1c1ccccc1 [PHENINDIONE] .
Result: > 30 µM

Request: I would be grateful if you could share the reported AC50 for CCOc1nc2cccc(C(=O)O)c2n1Cc1ccc(-c2ccccc2-c2nnn[nH]2)cc1 .
Result: > 30 µM

Request: I would be grateful if you could share the reported AC50 for CC1=C(/C=C/C(C)=C/C=C/C(C)=C/CO)C(C)(C)CCC1 [RETINOL] .
Result: > 10 µM

Request: I would be grateful if you could share the reported AC50 for CC1(C)S[C@@H]2[C@H](NC(=O)C(C(=O)O)c3ccccc3)C(=O)N2[C@H]1C(=O)O (stereo partly specified) [CARBENICILLIN] .
Result: > 30 µM

Request: I would be grateful if you could share the reported AC50 for CCCN1CC(NS(=O)(=O)N(CC)CC)CC2Cc3c(O)cccc3CC21 (stereo unspecified) [QUINAGOLIDE] .
Result: 1.1 µM

Request: I would be grateful if you could share the reported AC50 for O=C(O)Cc1ccccc1Oc1ccc(Cl)cc1Cl [FENCLOFENAC] .
Result: > 10 µM

Request: I would be grateful if you could share the reported AC50 for CCCc1cc(=O)[nH]c(=S)[nH]1 [PROPYLTHIOURACIL] .
Result: > 10 µM

Request: I would be grateful if you could share the reported AC50 for COC(=O)[C@H]1[C@H]2C[C@@H]3c4[nH]c5cc(OC)ccc5c4CCN3C[C@H]2C[C@@H](OC(=O)c2cc(OC)c(OC)c(OC)c2)[C@@H]1OC [RESERPINE] .
Result: > 10 µM

Request: I would be grateful if you could share the reported AC50 for O=C1CC[C@@H](C(=O)N2CSC[C@H]2C(=O)O)N1 [PIDOTIMOD] ([pGlu]-[Thz]-OH) .
Result: > 30 µM

Request: I would be grateful if you could share the reported AC50 for Cc1ccccc1N1C(=O)c2cc(S(N)(=O)=O)c(Cl)cc2NC1C (stereo unspecified) [METOLAZONE] .
Result: > 10 µM
